assay: Multiple ascending dose (MAD) study: multiple-dose pharmacokinetics; format: in vivo, human; details: human, plasma, oral, 120 mg, 120 mg BID, Day 9, 0 hr post-dose (192 h); read-out: Pre-dose (trough) plasma concentration, Mean
Measure: concentration at 192 h (ng/mL)
The figure you give is taken to be in ng/mL; do not add the unit.

Challenge: Which value of concentration at 192 h has been reported for "CC(=O)c1nn(CC(=O)N2[C@H](C(=O)Nc3nc(Br)ccc3C)C[C@@]3(C)C[C@@H]23)c2ccc(-c3cnc(C)nc3)cc12" in the records?
Response given: 156

* * *

test: Phase I single ascending dose (SAD) study: plasma and urine pharmacokinetics; assay type: in vivo, human; conditions: human, plasma, oral, 120 mg, 120 mg single dose, fasted, plasma; read-out: AUC0-inf, GM
Measure: AUC(0-inf) (ng·h/mL)
Express the result in ng·h/mL but write the number alone.

Challenge: # input compound: "CC(=O)c1nn(CC(=O)N2[C@H](C(=O)Nc3nc(Br)ccc3C)C[C@@]3(C)C[C@@H]23)c2ccc(-c3cnc(C)nc3)cc12" ; wanted: its AUC(0-inf)
Response given: 1670
